# target under test: BRD4-1 (Homo sapiens)
# Construct: (contract assay service)
# assay comment: Bromodomain protein inhibition IC50, binding domain 1 of BRD4 (Reaction Biology Corp.)
# conditions used: 10-point curve
pIC50: −log10 of the molar value. Counter-ions that a name gives are not always drawn.
quantity name: pIC50

Some entries whose results are on file:
Cc1nn(-c2ccnc(Nc3ccc(-c4csc5c(=O)cc(N6CCOCC6)oc45)cc3)n2)cc1CN1CC(O)C1; < 4.30
Cc1nn(-c2ccnc(Nc3ccc(-c4csc5c(=O)cc(N6CCNCC6)oc45)cc3)n2)cc1CN1CCC1 [Compound 4, dihydrochloride]; 4.30 to 5.30
Cc1nn(-c2ccnc(Nc3ccc(-c4csc5c(=O)cc(N6CCOCC6)oc45)cc3)n2)cc1CN1CCC1; 5.30 to 6.00

Turning to the following compound.
Query Cc1nn(-c2ccnc(Nc3ccc(-c4csc5c(=O)cc(N6CCNCC6)oc45)cc3)n2)cc1CN1CC(O)C1 [Compound 2, dihydrochloride] yields pIC50 of 4.30 to 5.30

###

Structures can show the parent of a compound that is named as a salt.
The listing below reports IC50 for molecules tested on PI3K α (Homo sapiens, UniProt P42336).
Sequence (P42336 whole entry): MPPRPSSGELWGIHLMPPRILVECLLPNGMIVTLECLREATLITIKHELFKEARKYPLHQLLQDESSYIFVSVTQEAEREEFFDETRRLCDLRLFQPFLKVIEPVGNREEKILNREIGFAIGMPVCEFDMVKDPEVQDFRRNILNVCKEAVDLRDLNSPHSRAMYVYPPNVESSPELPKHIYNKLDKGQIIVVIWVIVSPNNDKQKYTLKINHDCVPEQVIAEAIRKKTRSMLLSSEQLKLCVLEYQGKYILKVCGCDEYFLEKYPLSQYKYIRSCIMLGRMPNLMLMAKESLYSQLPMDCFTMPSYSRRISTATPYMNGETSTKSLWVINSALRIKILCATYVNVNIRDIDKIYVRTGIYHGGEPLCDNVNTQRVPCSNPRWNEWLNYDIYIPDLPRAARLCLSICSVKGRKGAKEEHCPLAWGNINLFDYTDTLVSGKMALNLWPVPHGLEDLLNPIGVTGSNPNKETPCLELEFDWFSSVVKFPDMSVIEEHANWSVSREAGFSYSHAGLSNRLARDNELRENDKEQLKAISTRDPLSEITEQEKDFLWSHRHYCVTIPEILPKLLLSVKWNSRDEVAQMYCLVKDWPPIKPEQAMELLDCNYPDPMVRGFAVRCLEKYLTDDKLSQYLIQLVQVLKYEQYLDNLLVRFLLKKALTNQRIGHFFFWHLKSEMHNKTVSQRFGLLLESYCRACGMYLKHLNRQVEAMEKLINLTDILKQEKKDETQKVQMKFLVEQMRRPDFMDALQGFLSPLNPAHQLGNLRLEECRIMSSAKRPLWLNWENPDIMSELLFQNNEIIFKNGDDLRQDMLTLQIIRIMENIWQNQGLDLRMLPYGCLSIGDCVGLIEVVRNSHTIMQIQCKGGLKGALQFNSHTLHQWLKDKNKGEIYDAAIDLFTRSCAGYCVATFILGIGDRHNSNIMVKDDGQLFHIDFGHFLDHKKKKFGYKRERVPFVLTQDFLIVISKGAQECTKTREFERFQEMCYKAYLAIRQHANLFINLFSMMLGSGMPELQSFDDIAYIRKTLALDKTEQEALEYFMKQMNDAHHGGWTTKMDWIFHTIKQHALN
Sequence (P27986 whole entry partner): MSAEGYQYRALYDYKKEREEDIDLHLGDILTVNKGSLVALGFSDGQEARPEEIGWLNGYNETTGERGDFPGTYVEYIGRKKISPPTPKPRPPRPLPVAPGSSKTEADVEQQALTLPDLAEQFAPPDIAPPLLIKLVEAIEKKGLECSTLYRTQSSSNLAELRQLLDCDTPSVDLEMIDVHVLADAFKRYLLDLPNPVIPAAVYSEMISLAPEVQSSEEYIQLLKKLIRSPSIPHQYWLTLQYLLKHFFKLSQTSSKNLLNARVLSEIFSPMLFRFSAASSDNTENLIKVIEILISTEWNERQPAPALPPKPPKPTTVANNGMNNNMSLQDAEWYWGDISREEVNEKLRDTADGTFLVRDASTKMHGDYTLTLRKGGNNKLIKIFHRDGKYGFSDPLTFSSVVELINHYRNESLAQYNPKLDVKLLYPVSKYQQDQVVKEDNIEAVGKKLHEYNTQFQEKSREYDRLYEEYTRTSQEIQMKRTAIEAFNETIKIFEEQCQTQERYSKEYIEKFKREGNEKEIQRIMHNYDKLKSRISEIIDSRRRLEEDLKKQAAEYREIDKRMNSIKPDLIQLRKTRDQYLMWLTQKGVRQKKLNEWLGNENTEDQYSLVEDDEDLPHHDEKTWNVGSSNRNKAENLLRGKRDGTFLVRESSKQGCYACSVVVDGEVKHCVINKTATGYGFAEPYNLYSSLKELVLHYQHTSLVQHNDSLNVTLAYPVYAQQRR

Some entries whose results are on file:
Cc1nn(-c2ccnc(Nc3ccc(-c4csc5c(=O)cc(N6CCOCC6)oc45)cc3)n2)cc1CN1CCC1; 100 to 1000 nM
Cc1nn(-c2ccnc(Nc3ccc(-c4csc5c(=O)cc(N6CCNCC6)oc45)cc3)n2)cc1CN1CC(O)C1 [Compound 2, dihydrochloride]; 1000 to 5000 nM
Cc1nn(-c2ccnc(Nc3ccc(-c4csc5c(=O)cc(N6CCOCC6)oc45)cc3)n2)cc1CN1CC(O)C1; 100 to 1000 nM

Turning to the following molecule.
For the molecule Cc1nn(-c2ccnc(Nc3ccc(-c4csc5c(=O)cc(N6CCNCC6)oc45)cc3)n2)cc1CN1CCC1 [Compound 4, dihydrochloride] , the measured IC50 on PI3K α (Homo sapiens, UniProt P42336) was 5000 to 50000 nM

###

The listing below reports IC50 for molecules tested on PI3K γ (Homo sapiens, UniProt P48736).
Sequence (P48736 whole entry): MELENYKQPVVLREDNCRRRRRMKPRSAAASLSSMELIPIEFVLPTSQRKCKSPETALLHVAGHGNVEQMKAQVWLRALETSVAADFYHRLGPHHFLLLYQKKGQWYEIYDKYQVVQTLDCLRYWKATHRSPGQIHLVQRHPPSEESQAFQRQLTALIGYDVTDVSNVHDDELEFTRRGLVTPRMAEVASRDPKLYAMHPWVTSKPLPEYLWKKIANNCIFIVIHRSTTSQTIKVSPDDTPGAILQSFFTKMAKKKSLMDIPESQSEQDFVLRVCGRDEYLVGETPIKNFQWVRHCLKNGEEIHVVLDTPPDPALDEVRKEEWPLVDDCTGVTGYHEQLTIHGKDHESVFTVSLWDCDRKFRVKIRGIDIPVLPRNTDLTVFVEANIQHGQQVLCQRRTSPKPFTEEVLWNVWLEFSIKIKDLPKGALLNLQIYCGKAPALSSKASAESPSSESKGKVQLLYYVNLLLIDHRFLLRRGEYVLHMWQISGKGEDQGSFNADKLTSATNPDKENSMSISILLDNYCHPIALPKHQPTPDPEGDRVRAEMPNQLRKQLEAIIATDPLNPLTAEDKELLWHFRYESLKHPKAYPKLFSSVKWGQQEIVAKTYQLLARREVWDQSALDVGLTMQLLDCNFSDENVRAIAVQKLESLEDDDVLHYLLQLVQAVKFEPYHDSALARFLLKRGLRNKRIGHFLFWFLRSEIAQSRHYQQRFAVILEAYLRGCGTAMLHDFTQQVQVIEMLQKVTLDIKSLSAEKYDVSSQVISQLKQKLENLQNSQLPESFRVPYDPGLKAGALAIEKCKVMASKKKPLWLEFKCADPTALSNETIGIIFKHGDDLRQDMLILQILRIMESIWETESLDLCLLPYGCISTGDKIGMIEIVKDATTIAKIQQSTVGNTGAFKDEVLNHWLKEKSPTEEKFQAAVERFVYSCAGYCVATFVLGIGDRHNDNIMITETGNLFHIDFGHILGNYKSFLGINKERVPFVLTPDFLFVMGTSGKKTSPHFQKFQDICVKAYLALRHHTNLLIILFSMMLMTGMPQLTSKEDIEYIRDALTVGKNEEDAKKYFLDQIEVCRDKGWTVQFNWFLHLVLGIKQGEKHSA
Where a name gives a salt, the structure may show the parent alone.

Some entries whose results are on file:
Cc1nn(-c2ccnc(Nc3ccc(-c4csc5c(=O)cc(N6CCNCC6)oc45)cc3)n2)cc1CN1CC(O)C1 [Compound 2, dihydrochloride]; > 50 µM
Cc1nn(-c2ccnc(Nc3ccc(-c4csc5c(=O)cc(N6CCNCC6)oc45)cc3)n2)cc1CN1CCC1 [Compound 4, dihydrochloride]; > 50 µM

Turning to the following molecule.
For the molecule Cc1nn(-c2ccnc(Nc3ccc(-c4csc5c(=O)cc(N6CCOCC6)oc45)cc3)n2)cc1CN1CCC1 [Compound 3] , the measured IC50 on PI3K γ (Homo sapiens, UniProt P48736) was 5 to 50 µM

###

# target under test: SYK (Homo sapiens, UniProt P43405)
# Construct: purchased Reaction Biology Corp., Malvern, Pa; (contract assay service)
# assay comment: SYK inhibition IC50 (Reaction Biology Corp.)
# Format: biochemical
# conditions used: note to Table 5; read-out: SYK inhibition IC50
pIC50: −log10 of the molar value.
quantity name: pIC50

Query O=c1cc(N2CCOCC2)oc2c(-c3ccc4c(c3)OCCO4)csc12 yields pIC50 of < 4.30
